Molecular target: T1, human amylin 3(a) receptor (human calcitonin receptor co-expressed with RAMP-3) (human, UniProt P30988 25-474; O60896 24-148, limits assumed)
T1 sequence (looked up) 1: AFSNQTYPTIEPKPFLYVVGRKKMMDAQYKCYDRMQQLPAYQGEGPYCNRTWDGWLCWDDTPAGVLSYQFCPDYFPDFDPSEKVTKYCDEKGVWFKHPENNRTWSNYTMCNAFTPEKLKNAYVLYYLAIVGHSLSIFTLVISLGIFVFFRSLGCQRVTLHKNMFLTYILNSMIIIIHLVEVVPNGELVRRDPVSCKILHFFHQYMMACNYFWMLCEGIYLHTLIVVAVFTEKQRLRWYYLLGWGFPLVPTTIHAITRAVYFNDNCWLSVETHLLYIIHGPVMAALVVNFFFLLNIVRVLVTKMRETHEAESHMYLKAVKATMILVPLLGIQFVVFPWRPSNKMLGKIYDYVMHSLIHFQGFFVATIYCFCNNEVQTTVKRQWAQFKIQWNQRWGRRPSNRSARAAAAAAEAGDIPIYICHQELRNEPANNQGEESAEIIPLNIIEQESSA
T1 sequence (looked up) 2: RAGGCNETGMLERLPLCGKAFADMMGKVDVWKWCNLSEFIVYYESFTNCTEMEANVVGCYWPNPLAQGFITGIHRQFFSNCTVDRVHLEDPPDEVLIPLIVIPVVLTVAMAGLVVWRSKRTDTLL
Assay: cell-based or functional assay
Numbered stars: 1 amine (or outer) side, 2 acyl side, 3 side chain; on linkers, the order of the positions; unused ones are H or OH. Bridge positions count the residues as written; N and C are the ends. Side chains are listed from the residue outwards. Ends that are not written are not given here. * marks the point of attachment. C20 diacid = O=C(O)CCCCCCCCCCCCCCCCCCC(=O)*; γGlu = O=C(O)[C@H](CCC(=O)[*:2])N[*:1]
# Ratio hCT/hAmylin funct. values compiled below

K([γGlu-C20 diacid])CNTATCATQRLAHFLRHSSPNFGAIPSSTNVGPNTP-NH2 (disulfide 2-7 (inferred)) = 0.8
{C20 diacid-γGlu}-KCNTATCATQRLAEFLRHSSPNFGAIPSSTNVGSNTP-NH2 (disulfide 2-7 (inferred), also called compound 8) = 1.1
{C20 diacid-γGlu}-KCNTATCATQRLAEFLRHSSPNFGAPLSSTNVGSNTP-NH2 (disulfide 2-7 (inferred), also called compound 5) = 1

## Input Which measured Ratio hCT/hAmylin funct. value corresponds to {C20 diacid-γGlu}-KCNTATCATQRLAEFLRHSSPNFGAIPSSTNVGSDTP-NH2 (disulfide 2-7 (inferred), also called compound 11) ?
## Output 0.9

## Input What do we get for {C20 diacid-γGlu-γGlu}-KCNTATCATQRLAEFLRHSSPNFGAIPSSTNVGSNTP-NH2 (disulfide 2-7 (inferred), also called compound 14) ?
## Output 1.6

## Input Now the binder K([γGlu-C20 diacid])CNTATCATQRLADFLRHSSPNFGAIPSSTNVGPETY-NH2 (disulfide 2-7 (inferred))
## Output 3.9
